- Tgt: Phosphatidylinositol 4,5-bisphosphate 3-kinase catalytic subunit alpha isoform (Homo sapiens, UniProt P42336)
- Sequence (P42336 whole entry, canonical isoform): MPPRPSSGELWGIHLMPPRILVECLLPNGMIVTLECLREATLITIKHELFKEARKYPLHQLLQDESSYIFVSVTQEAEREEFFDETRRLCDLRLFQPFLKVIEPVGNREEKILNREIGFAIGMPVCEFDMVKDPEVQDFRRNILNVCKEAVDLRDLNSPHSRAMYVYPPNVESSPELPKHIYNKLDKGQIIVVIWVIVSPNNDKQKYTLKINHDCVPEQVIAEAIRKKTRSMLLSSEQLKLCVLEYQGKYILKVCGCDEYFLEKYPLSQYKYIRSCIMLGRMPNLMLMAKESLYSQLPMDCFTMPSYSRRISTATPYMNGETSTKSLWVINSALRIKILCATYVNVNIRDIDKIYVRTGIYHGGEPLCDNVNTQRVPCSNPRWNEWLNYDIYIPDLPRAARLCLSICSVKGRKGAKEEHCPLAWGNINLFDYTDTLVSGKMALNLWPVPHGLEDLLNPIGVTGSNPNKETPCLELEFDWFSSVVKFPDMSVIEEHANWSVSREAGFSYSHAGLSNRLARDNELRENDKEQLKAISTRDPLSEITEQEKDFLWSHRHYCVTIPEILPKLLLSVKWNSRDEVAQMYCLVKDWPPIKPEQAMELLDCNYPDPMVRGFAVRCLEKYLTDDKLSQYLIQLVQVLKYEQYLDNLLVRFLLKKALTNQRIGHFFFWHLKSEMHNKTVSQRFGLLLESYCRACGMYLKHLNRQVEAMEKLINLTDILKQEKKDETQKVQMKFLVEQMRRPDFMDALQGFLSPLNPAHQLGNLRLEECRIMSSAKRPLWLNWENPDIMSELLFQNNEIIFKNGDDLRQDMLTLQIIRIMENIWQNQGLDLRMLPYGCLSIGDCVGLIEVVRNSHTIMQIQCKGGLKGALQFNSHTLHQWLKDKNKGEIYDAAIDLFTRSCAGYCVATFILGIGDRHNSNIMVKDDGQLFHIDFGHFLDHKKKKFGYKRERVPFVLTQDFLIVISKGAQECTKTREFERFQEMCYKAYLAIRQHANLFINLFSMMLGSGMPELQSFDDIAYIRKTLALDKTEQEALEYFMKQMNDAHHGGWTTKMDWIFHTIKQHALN

{"Smiles Str": "CCn1nnc(CCNC(=O)Nc2nc(C)c(-c3ccc(S(C)(=O)=O)c(F)c3)s2)n1", "IC50": "3.03 µM"}

----------
- Assay: in vivo
- Setup Conditions: Sprague-Dawley, rat, po, 100 mg/kg
Parameter Measured: Cmax (µM)

{"Smiles Str": "Cc1ncc(-c2cc(-c3cc(S(=O)(=O)NCC(C)(C)O)ccc3C)cnc2N)o1", "Parameter Measured": "Cmax", "Recorded Value": 12.2}

----------
- Tgt: Phosphatidylinositol 4,5-bisphosphate 3-kinase catalytic subunit delta isoform (Homo sapiens)
- Assay type: cell-based, Fibroblast
- Description: Inhibition of human PI3Kdelta expressed in rat fibroblast cells assessed as reduction in AKT phosphorylation at Ser473 residue incubated for 1 hr by AlphaScreen assay
Parameter Measured: IC50 (µM)

{"Smiles Str": "CCn1nnc(CCNC(=O)Nc2nc(C)c(-c3ccc(S(C)(=O)=O)c(F)c3)s2)n1", "Unit Of Measure": "µM", "Recorded Value": 4.03}

----------
- Assay: in vivo
- Setup Conditions: Sprague-Dawley, rat, po, 10 mg/kg
Each entry below carries its reported Cmax.

{"Smiles Str": "Cc1ncc(-c2cc(-c3cc(S(=O)(=O)NCC(C)(C)O)ccc3C)cnc2N)o1", "Unit Of Measure": "nM", "Cmax": 1530}
{"Smiles Str": "Cc1noc(-c2cc(-c3cc(S(=O)(=O)NCC(C)(C)O)ccc3C)cnc2N)n1", "Unit Of Measure": "nM", "Cmax": 3290}

----------
- Assay: in vivo
- Setup Conditions: Sprague-Dawley, rat, iv, 1 mg/kg
Parameter Measured: half-life (h)

{"Smiles Str": "Cc1ccc(S(=O)(=O)N[C@H]2CC[C@H](O)CC2)cc1-c1cnc(N)c(C(=O)C2CC2)n1", "Unit Of Measure": "h", "Recorded Value": 4.6}

----------
Each entry below carries its reported solubility thermodynamic.
- Assay: physchem
- Setup Conditions: simulated gi fluid, pH 1
- Description: Solubility of compound in stimulated gastric fluid at pH 1 using crystalline form of sample by shake flask method

{"Smiles Str": "Cc1ncc(-c2cc(-c3cc(S(=O)(=O)NCC(C)(C)O)ccc3C)cnc2N)o1", "solubility thermodynamic": "532 µg/mL"}
{"Smiles Str": "Cc1noc(-c2cc(-c3cc(S(=O)(=O)NCC(C)(C)O)ccc3C)cnc2N)n1", "solubility thermodynamic": "1020 µg/mL"}

----------
Each entry below carries its reported AUC(0-t) at 24 h.
- Assay: in vivo
- Setup Conditions: Sprague-Dawley, rat, po, 10 mg/kg

{"Smiles Str": "Cc1noc(-c2cc(-c3cc(S(=O)(=O)NCC(C)(C)O)ccc3C)cnc2N)n1", "Unit Of Measure": "µM·h", "AUC(0-t) at 24 h": 17.1}
{"Smiles Str": "Cc1ncc(-c2cc(-c3cc(S(=O)(=O)NCC(C)(C)O)ccc3C)cnc2N)o1", "Unit Of Measure": "µM·h", "AUC(0-t) at 24 h": 9.75}

----------
- Tgt: Phosphatidylinositol 4,5-bisphosphate 3-kinase catalytic subunit delta isoform (Homo sapiens, UniProt O00329)
- Sequence (O00329 whole entry, canonical isoform): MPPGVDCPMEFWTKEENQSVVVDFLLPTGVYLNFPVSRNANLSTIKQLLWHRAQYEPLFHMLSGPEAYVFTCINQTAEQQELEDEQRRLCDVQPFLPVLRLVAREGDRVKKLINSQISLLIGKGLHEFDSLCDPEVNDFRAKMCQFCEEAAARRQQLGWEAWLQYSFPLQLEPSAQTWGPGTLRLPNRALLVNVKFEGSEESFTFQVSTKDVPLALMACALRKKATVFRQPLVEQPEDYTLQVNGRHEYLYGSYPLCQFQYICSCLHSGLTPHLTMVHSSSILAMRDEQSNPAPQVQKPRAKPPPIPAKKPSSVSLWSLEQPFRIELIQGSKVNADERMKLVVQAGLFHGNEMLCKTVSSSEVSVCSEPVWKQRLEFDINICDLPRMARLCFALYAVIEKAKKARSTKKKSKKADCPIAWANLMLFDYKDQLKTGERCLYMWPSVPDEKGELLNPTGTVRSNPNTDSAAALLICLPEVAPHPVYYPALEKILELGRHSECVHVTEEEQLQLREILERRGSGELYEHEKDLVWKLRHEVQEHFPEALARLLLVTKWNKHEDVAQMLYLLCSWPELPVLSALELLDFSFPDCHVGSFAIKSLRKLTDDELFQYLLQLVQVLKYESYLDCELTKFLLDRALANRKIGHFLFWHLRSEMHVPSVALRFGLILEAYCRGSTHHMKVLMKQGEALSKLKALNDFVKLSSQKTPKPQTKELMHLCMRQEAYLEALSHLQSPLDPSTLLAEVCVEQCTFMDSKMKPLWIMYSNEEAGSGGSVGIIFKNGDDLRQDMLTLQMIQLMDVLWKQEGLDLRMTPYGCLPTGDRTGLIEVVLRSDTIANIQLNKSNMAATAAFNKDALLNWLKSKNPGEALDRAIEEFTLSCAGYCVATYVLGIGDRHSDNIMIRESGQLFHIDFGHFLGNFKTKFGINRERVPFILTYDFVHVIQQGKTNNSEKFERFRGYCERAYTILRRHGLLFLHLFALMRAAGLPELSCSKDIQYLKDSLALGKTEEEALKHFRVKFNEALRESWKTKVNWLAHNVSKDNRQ

{"Smiles Str": "CCn1nnc(CCNC(=O)Nc2nc(C)c(-c3ccc(S(C)(=O)=O)c(F)c3)s2)n1", "IC50 [nM]": 960}

----------
- Tgt: Phosphatidylinositol 4,5-bisphosphate 3-kinase catalytic subunit beta isoform (Homo sapiens)
- Sequence (P42338 whole entry, canonical isoform): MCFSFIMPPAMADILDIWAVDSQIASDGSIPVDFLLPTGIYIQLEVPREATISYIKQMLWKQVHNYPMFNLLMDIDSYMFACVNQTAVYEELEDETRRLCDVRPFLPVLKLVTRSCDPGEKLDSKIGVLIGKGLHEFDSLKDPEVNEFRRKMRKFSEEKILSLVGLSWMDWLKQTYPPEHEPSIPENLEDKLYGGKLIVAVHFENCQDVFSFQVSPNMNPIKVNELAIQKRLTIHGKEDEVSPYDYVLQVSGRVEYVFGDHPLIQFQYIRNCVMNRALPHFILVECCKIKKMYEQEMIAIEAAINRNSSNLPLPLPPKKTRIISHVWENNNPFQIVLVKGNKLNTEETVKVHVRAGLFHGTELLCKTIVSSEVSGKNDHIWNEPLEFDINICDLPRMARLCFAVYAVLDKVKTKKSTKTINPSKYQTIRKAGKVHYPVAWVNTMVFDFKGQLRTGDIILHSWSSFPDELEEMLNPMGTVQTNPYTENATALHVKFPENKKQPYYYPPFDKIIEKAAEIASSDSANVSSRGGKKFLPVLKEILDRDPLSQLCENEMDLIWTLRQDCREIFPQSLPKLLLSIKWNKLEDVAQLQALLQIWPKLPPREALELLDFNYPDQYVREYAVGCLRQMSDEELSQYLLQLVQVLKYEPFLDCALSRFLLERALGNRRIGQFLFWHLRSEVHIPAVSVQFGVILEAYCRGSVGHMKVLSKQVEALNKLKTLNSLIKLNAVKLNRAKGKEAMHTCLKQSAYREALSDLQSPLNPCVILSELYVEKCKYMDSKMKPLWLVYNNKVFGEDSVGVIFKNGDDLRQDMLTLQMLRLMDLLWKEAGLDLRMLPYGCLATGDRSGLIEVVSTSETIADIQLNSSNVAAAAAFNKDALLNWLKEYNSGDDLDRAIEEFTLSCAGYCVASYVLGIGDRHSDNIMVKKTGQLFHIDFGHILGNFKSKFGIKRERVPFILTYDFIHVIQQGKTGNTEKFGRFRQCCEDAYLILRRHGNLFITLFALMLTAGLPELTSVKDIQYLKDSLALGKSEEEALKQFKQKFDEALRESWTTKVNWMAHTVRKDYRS
Parameter Measured: IC50 (µM)

{"Smiles Str": "CCn1nnc(CCNC(=O)Nc2nc(C)c(-c3ccc(S(C)(=O)=O)c(F)c3)s2)n1", "Recorded Value": 0.36}

----------
- Assay: in vivo
- Setup Conditions: Sprague-Dawley, rat, po, 300 mg/kg

{"Smiles Str": "Cc1ncc(-c2cc(-c3cc(S(=O)(=O)NCC(C)(C)O)ccc3C)cnc2N)o1", "Cmax / µM": 25.2}

----------
- Assay: in vivo
- Setup Conditions: Sprague-Dawley, rat, po, 100 mg/kg
Parameter Measured: bioavailability (%)

{"Smiles Str": "Cc1ncc(-c2cc(-c3cc(S(=O)(=O)NCC(C)(C)O)ccc3C)cnc2N)o1", "Parameter Measured": "bioavailability", "Recorded Value": 94}

----------
- Assay: in vitro
- Setup Conditions: PAMPA
- Description: Permeability of the compound at 500 uM incubated for 16 hrs by PAMPA
Values of Fa at 16 h, 500 µM strictly less than 40% map to Criterion met, and values of at least 40% map to Criterion not met.

{"Smiles Str": "Cc1ncc(-c2cc(-c3cc(S(=O)(=O)NCC(C)(C)O)ccc3C)cnc2N)o1", "Assigned Class": "Criterion met"}
{"Smiles Str": "Cc1nnc(-c2cc(-c3cc(S(=O)(=O)NCC(C)(C)O)ccc3C)cnc2N)o1", "Assigned Class": "Criterion met"}
{"Smiles Str": "Cc1ncc(-c2nc(-c3cc(S(=O)(=O)NCCO)ccc3C)cnc2N)s1", "Assigned Class": "Criterion met"}
{"Smiles Str": "Cc1ncc(-c2cc(-c3cc(S(=O)(=O)NCC(C)(C)O)ccc3C)cnc2N)s1", "Assigned Class": "Criterion not met"}
{"Smiles Str": "Cc1ccc(S(=O)(=O)NCC(C)(C)O)cc1-c1cnc(N)c(-c2cn(C)nc2C)n1", "Assigned Class": "Criterion met"}
{"Smiles Str": "Cc1cnn(-c2cc(-c3cc(S(=O)(=O)NCC(C)(C)O)ccc3C)cnc2N)c1", "Assigned Class": "Criterion not met"}
{"Smiles Str": "Cc1ccc(S(=O)(=O)NCC(C)(C)O)cc1-c1cnc(N)c(-c2cnn(C)c2C)c1", "Assigned Class": "Criterion met"}
{"Smiles Str": "Cc1ncc(-c2nc(-c3cc(S(=O)(=O)NCCC(C)(C)O)ccc3C)cnc2N)s1", "Assigned Class": "Criterion met"}
{"Smiles Str": "Cc1ccc(S(=O)(=O)NCC(C)(C)O)cc1-c1cnc(N)c(-n2cncn2)n1", "Assigned Class": "Criterion met"}

----------
- Tgt: 3',5'-cyclic-AMP phosphodiesterase 4D (Homo sapiens, UniProt Q08499)
- Sequence (Q08499 whole entry): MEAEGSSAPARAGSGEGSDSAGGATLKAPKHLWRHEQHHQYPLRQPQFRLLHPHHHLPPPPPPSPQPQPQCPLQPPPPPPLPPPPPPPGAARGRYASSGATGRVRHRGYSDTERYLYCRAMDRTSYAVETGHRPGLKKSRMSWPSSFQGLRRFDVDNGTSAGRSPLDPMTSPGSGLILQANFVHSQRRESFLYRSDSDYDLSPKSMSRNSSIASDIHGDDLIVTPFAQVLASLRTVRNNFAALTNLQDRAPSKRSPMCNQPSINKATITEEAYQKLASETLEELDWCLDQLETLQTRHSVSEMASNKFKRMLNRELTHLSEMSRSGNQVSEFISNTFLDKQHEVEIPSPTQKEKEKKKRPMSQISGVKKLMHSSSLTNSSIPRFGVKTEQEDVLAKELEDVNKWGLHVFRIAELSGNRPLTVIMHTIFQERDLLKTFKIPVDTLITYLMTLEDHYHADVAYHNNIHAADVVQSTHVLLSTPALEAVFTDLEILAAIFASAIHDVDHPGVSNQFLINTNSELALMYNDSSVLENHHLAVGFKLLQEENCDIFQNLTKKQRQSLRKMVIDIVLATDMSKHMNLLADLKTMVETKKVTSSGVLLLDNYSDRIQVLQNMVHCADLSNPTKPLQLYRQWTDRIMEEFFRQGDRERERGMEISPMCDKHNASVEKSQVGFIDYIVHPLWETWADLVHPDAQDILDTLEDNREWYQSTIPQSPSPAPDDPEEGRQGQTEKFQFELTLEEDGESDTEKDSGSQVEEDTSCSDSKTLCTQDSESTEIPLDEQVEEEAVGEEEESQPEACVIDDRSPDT
Parameter Measured: IC50 (µM)

{"Smiles Str": "Cc1ncc(-c2cc(-c3cc(S(=O)(=O)NCC(C)(C)O)ccc3C)cnc2N)o1", "Parameter Measured": "IC50", "Recorded Value": 1.1}

----------
- Assay: in vitro
- Setup Conditions: PAMPA
Response key: class 1 means Fa at 16 h, 500 µM >= 80%; class 0 means Fa at 16 h, 500 µM < 80%.

{"Smiles Str": "Cc1ncc(-c2nc(-c3cc(S(=O)(=O)NC4CCC(F)(F)CC4)ccc3C)cnc2N)s1", "Assigned Class": "class 1"}
{"Smiles Str": "Cc1ccn(-c2nc(-c3cc(S(=O)(=O)NCC(C)(C)O)ccc3C)cnc2N)n1", "Assigned Class": "class 1"}
{"Smiles Str": "Cc1ccc(S(=O)(=O)NCC(C)(C)O)cc1-c1cnc(N)c(-n2cncn2)c1", "Assigned Class": "class 0"}
{"Smiles Str": "Cc1ncc(-c2nc(-c3cc(S(=O)(=O)NCC(C)(C)O)ccc3C)cnc2N)s1", "Assigned Class": "class 0"}
{"Smiles Str": "Cc1ncc(-c2nc(-c3cc(S(=O)(=O)NCCCO)ccc3C)cnc2N)s1", "Assigned Class": "class 0"}
{"Smiles Str": "Cc1ccc(S(=O)(=O)NCC(C)(C)O)cc1-c1cnc(N)c(-c2cnn(C)n2)c1", "Assigned Class": "class 0"}
{"Smiles Str": "Cc1ccc(S(=O)(=O)NCC(C)(C)O)cc1-c1cnc(N)c(-c2cnn(C)n2)n1", "Assigned Class": "class 0"}
{"Smiles Str": "Cc1ncc(-c2nc(-c3cc(S(=O)(=O)N[C@H]4CC[C@H](O)CC4)ccc3C)cnc2N)s1", "Assigned Class": "class 0"}
{"Smiles Str": "Cc1cc(-c2nc(-c3cc(S(=O)(=O)NCC(C)(C)O)ccc3C)cnc2N)on1", "Assigned Class": "class 0"}

----------
- Assay: in vivo
- Setup Conditions: Sprague-Dawley, rat, po, 100 mg/kg
Parameter Measured: AUC(0-t) at 24 h

{"Smiles Str": "Cc1ncc(-c2cc(-c3cc(S(=O)(=O)NCC(C)(C)O)ccc3C)cnc2N)o1", "Recorded Value": "128 µM·h"}

// data source = ChEMBL document CHEMBL4831512
